Test system: HBeAg
assay-procedure: PHH HBV natural infection assay, HBeAg (alphalisa)
Type: cell-based
cond: read-out: HbeAg IC50; HBV-infected primary human hepatocytes, supernatant, compound medium refreshed two times with 72-hour interval
Threshold-based label: IC50 under 4 µM gives Y, IC50 not under 4 µM gives N.

Sample answers from the record:
# molecule, assigned-category
data = [
    ("N=S(=O)(CC1CC1)c1ccc(C(=O)NC2CC3(C2)CC(c2nc4cc(Cl)ccc4o2)C3)o1 (single isomer, unassigned) [Example 54-a]", "N"),
    ("CS(=N)(=O)c1ccc(C(=O)NC2CC3(C2)CC(c2nc4cc(Cl)ccc4o2)C3)o1 (single isomer, unassigned) [Example 52-a]", "Y"),
    ("N=S(=O)(c1ccc(C(=O)NC2CC3(C2)CC(c2nc4cc(Cl)ccc4o2)C3)o1)C1CC1 (single isomer, unassigned) [Example 53-a]", "Y"),
    ("N=S(=O)(c1ccc(C(=O)NC2CC3(C2)CC(c2nc4cc(Cl)cnc4o2)C3)o1)C1CC1 (single isomer, unassigned) [Example 64-a]", "N"),
]

Turning to the following molecule.
Consider CS(=N)(=O)c1ccc(C(=O)NC2CC3(C2)CC(c2nc4cc(Cl)ccc4o2)C3)o1 (single isomer, unassigned) [Example 52-c] . Does its IC50 lie strictly below 4 µM?
Y
